TARGET OF ASSAY: Cytochrome P450 2C9 (Homo sapiens) (UniProt P11712)
Sequence (P11712 whole entry, looked up): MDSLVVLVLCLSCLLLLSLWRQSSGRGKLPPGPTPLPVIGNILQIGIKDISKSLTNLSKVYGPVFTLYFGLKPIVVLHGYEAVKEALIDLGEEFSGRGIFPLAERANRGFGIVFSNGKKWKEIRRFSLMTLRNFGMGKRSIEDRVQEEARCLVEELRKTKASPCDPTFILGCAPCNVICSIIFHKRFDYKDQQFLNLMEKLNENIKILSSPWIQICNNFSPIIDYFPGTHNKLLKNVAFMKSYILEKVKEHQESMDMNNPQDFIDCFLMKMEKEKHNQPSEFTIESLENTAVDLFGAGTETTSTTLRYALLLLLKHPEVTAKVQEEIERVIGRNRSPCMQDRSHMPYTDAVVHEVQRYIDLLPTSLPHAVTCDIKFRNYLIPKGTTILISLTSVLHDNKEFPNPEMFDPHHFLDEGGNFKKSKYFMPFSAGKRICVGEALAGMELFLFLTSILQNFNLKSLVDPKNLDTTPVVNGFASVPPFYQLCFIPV
ASSAY TEXT: Cytochrome P450 family 2 subfamily C member 9 (CYP2C9) small molecule antagonists: luciferase biochemical (cell-free) qHTS assay (AID 1645842); further: nearly all actives have a fitted effect of over 55% in size
CONDITION: P450-Glo CYP2C9 enzyme assay, luciferin luminescence; series mostly up to 57.4 µM
Inconclusive results are not listed. Activity calls are given as the source filed them. The call rests on the fitted dose curve; in most records, active means well fitted inhibition curve with a large enough effect in the repeat runs; inconclusive means weak or mixed curves; inactive means no such curve, though single readings can be large or run the other way.
Use one of these outcomes when replying: active, inactive

Lab log entry: `NC(=Nc1ccc(CCNCc2cccc(Cl)c2)cc1)c1cccs1` — outcome as called in the assay?
active

Tell me the assay call for `CN(C)CCCNc1nc(CN2CCN(C(c3ccc(Cl)cc3)c3ccc(Cl)cc3)CC2)nc2ccccc12` please.
inactive

Field: outcome | Entry: `COc1cc(-c2cc(-c3cccc(O)c3)cnc2N)cc(OC)c1OC`
active

Answer briefly: the call reported for `Cc1ccc2c(Nc3ccc(Cl)cc3)nccc2c1Nc1ncccc1-c1ncnc2nc[nH]c12` in this assay.
active

How did this test come out for `Cc1ccc(-c2nnc(Nc3ccccc3)c3ccccc23)cc1S(=O)(=O)NCc1nc2ccccc2[nH]1` ?
inactive

How was `C[C@@H](CN1CCC(n2c(=O)[nH]c3cc(Cl)ccc32)CC1)NC(=O)c1ccc2ccccc2c1` classified in this test?
active

What was the test verdict on Nc1nc(NCC2CCC(CNS(=O)(=O)c3cccc4ccccc34)CC2)nc2ccccc12 (centres undefined) ?
active

What outcome does the record of this test show for `C=C1C(=O)O[C@@H]2[C@H]3O[C@]3(C)CC/C=C(\C)CC[C@@H]12` ?
inactive

Write down the call the test reported for this compound. Item: `COc1cc2ncnc(Nc3ccc(Oc4ccccc4)cc3)c2cc1OC`
active

Query: recorded result category for `COc1ccc(Nc2nnc(-c3ccc(C)c(S(=O)(=O)NCc4nc5ccccc5[nH]4)c3)c3ccccc23)cc1` in this test
active

Hi, do you know how CC1CCN(C(c2ccc(F)cc2)c2ccc(C(C)C(=O)O)cc2-c2ccc(C(F)(F)F)cc2)CC1 (centres undefined) came out in this test?
active

Recorded test call requested for `CC1CCN(c2cc(NC(=O)c3ccccc3)ncn2)CC1`
active

What did this assay record as the result for `COc1ccccc1-c1c[nH]c2ncc(-c3cncc(C(=O)N(C)C)c3)cc12` ?
active

Recorded call for `COc1cccc(NC[C@@H](O)Cn2c3ccc(Br)cc3c3cc(Br)ccc32)c1` ?
inactive

Record request — test call for `CN(CCCNC(=O)c1ccc2nc3c(c(Cl)c2c1)CCCC3)Cc1ccccc1`
active

Entry CCOc1ccc(-c2nc(-c3cccc4c3CCC4NCCO)no2)cc1OCC (centres undefined) : call = ?
inactive

Record request — test call for `CNC(=O)c1cccc2cc(Oc3ccnc4cc(OCC5(N)CC5)c(OC)cc34)ccc12`
active

For this compound, state the assay outcome: Clc1ccccc1CNCC1CCC(CNCc2ccccc2Cl)CC1 (centres undefined)
inactive

Please state the recorded outcome for this compound: Cc1nccn1CC1CCC2C(C1=O)c1ccccc1N2C (centres undefined)
inactive

Test call, this compound: `CCCCOc1ccc(-c2cncc(C(=O)NCc3cccnc3N3CCOCC3)c2)cc1Cl`
active

Returns: the outcome recorded for COc1ccc(-c2cc(C(O)C3CCCCN3)c3ccccc3n2)cc1 (centres undefined) in this assay.
active

How did this test come out for CCOc1nc2cccc(C(=O)OC(C)OC(=O)OC3CCCCC3)c2n1Cc1ccc(-c2ccccc2-c2nn[nH]n2)cc1 (centres undefined) ?
active

Which result was noted for this compound in the test: `COc1ccc(CNC(=O)Nc2ncc([N+](=O)[O-])s2)cc1`
active

How was `Cn1cc(-c2cnc3ccc4ccc(CS(=O)(=O)NCc5ccccn5)cc4c(=O)c3c2)cn1` classified in this test?
inactive

// data source = PubChem BioAssay (NCATS)
